test system: AncSZ; assay: phosphorylation enrichment, bacterial display (enrichment ratio); higher = better substrate or ligand; peptides without Tyr show the background;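 note: 11-residue human phosphosite peptides and single-mutation variants displayed on the E. coli surface, counted by deep sequencing, each peptide's frequency after selection divided by its frequency in the unselected input library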;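 note: frequency after pTyr selection over input frequency; kinase dosed for 20-30% of maximal phosphorylation in three min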
Decision: phosphorylation enrichment >= 1 yields Y, all other cases yield N.

Worked cases, answers included:
KFACSYTPVKA [FLNB_Y708_T703K_YF] : N
RLQAAYNLVKR [PFKM_Y103_R100Q] : N
CKLCQYYLDHL [ATRX_Y1849_Y1847C] : N

Decide: phosphorylation enrichment of ALAHEYHGGGG [HBB_Y146_K145E] >= 1?
N

Decide: phosphorylation enrichment of RSPLRYISILT [OR51B6_Y130_T131I] >= 1?
N

Decide: phosphorylation enrichment of TEAEPYYCSLR [NPHS1_Y1138_R1140C] >= 1?
Y

Decide: phosphorylation enrichment of LEAVSYSSPFA [RNLS_Y190_R193P_YF] >= 1?
Y

Decide: phosphorylation enrichment of PLGVPYLDKPP [JMJD7_Y31_A28G] >= 1?
N

Decide: phosphorylation enrichment of RSHLSYDVTPE [IQGAP3_Y1098_P1097S] >= 1?
N

Decide: phosphorylation enrichment of QTENKYDSVSG [EIF2AK3_Y565] >= 1?
N

Decide: phosphorylation enrichment of CTTIHFNYMCN [TP53_Y234_Y234F] >= 1?
N

Decide: phosphorylation enrichment of RGMVMYTSKDR [ZG16B_Y136] >= 1?
N

Decide: phosphorylation enrichment of CTTIYYNYMCN [TP53_Y234_H233Y] >= 1?
Y

Decide: phosphorylation enrichment of LFIDSYEKDVA [PGM1_Y521_YF] >= 1?
Y

Values from the supplement of paper PMC10065799
